Biological target: UniProtKB P21917
Sequence (P21917 whole entry): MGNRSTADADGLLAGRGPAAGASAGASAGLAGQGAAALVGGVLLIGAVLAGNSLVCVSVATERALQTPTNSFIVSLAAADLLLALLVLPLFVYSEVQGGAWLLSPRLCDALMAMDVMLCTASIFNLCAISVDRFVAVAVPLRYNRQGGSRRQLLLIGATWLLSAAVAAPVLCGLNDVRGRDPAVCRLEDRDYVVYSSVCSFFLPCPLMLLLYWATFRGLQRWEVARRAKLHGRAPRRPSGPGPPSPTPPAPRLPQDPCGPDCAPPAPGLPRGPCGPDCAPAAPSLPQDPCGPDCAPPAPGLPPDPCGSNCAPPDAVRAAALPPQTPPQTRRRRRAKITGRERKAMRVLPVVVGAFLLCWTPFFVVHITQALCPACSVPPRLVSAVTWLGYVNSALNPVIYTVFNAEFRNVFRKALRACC
Experiment: Displacement of [3H]N-methylspiperone from human D4.4 receptor expressed in HEK293T cell membrane incubated for 1 hr by MicroBeta scintillation counting method
Format: cell membranes
Provide the reported pKi of each item.
One number for each entry, as −log10 of the molar value.

O=C1CCc2ccccc2N1CCCN1CCN(c2ccc(Cl)cc2)CC1; 9.18
O=C1CCc2ccccc2N1CCCN1CCN(c2ccc(Cl)cc2Cl)CC1; 9.17
O=C1CCc2ccccc2N1CCN1CCN(c2ccccc2)CC1; 7.20
COc1ccccc1N1CCN(CCCN2C(=O)CCc3ccccc32)CC1; 9.21
O=C1CCc2ccccc2N1CCCN1CCN(c2cccc([N+](=O)[O-])c2)CC1; 8.45

Now for a further molecule.
# pKi (molecule: c1ccc(N2CCN(CCCN3CCCc4ccccc43)CC2)cc1 ) is 8.58

###

Molecular target: D(4) dopamine receptor (Homo sapiens)
Experiment: Antagonist activity at D4R (unknown origin) expressed in human HEK293T cells assessed as inhibition of dopamine-induced beta arrestin-2 recruitment pretreated for 10 mins followed by dopamine addition and measured after 2.5 mins by BRET assay
Type: functional, cell-based
Endpoint name: pIC50
Give bare numbers, as −log10 of the molar value.

Some entries whose results are on file:
Cc1ccc(N2CCN(CCCN3C(=O)CCc4ccccc43)CC2)cc1; 5.91
O=C1CCc2ccccc2N1CCCN1CCN(c2ccc(Cl)cc2)CC1; 4.98
COc1ccc(N2CCN(CCCN3C(=O)CCc4ccccc43)CC2)cc1; 6.41

Tested system D(4) dopamine receptor (Homo sapiens); pIC50 recorded for O=C1CCc2ccccc2N1CCCN1CCN(c2ccccn2)CC1 was 7.17

###

Provide the reported Ki of each item.
Target: D(3) dopamine receptor (Homo sapiens)
Sequence (P35462 whole entry): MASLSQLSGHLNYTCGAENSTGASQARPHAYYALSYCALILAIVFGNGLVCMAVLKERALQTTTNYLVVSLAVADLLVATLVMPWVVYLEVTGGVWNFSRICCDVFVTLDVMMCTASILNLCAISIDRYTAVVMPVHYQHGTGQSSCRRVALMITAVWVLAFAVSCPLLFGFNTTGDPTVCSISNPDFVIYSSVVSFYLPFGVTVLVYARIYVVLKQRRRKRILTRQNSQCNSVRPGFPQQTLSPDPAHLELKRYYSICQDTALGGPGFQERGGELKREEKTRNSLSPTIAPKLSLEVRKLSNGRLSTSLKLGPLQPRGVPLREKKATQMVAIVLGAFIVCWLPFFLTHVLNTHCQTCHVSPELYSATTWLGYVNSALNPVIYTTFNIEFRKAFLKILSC
Answers are plain numbers, in nM.

Some entries whose results are on file:
COc1ccc(N2CCN(CCCN3C(=O)CCc4ccccc43)CC2)cc1; 8320
Cc1ccc(N2CCN(CCCN3C(=O)CCc4ccccc43)CC2)cc1; 1700
O=C1CCc2ccccc2N1CCCN1CCN(c2ncccn2)CC1; 2290
O=C1CCc2ccccc2N1CCCN1CCN(c2ccc(Cl)cc2)CC1; 2450
O=C1CCc2ccccc2N1CCCN1CCN(c2cccc(Cl)c2)CC1; 282

I have 2 compounds here; please give me Ki for each one.
1. Cc1cccc(N2CCN(CCCN3C(=O)CCc4ccccc43)CC2)c1
2. O=C1CCc2ccccc2N1CCCN1CCN(c2ccccc2[N+](=O)[O-])CC1

1. 794
2. 129

I have 4 compounds here; please give me Ki for each one.
1. O=C1CCc2ccccc2N1CCCN1CCN(c2cccc(Cl)c2Cl)CC1
2. O=C1CCc2ccccc2N1CCCN1CCN(c2ccccn2)CC1
3. COc1cccc(N2CCN(CCCN3C(=O)CCc4ccccc43)CC2)c1
4. c1ccc(N2CCN(CCCc3nc4ccccc4s3)CC2)cc1

[21.4, 2570, 1550, 692]
